TEST DETAILS: molar heat capacity at constant pressure
SETUP CONDITIONS: 313.15 K; 101.33 kPa; Liquid; Small sample (50 mg) DSC
Could you label it true (1) if measured molar heat capacity at constant pressure is 400 J/K/mol or higher, and false (0) otherwise?

CCCCCCn1cc[n+](C)c1.F[B-](F)(F)F [1-hexyl-3-methylimidazolium tetrafluoroborate] : true (1)
CCCCn1cc[n+](C)c1.F[B-](F)(F)F [1-butyl-3-methylimidazolium tetrafluoroborate] : false (0)
CCCCn1cc[n+](C)c1.COS(=O)(=O)[O-] [1-butyl-3-methylimidazolium methyl sulfate] : true (1)
CCn1cc[n+](C)c1.O=S(=O)([O-])C(F)(F)F [1-ethyl-3-methylimidazolium trifluoromethanesulfonate] : false (0)
CCCCn1cc[n+](C)c1.O=S(=O)([O-])C(F)(F)F [1-butyl-3-methylimidazolium trifluoromethanesulfonate] : true (1)

Alright, here's another compound for you.
Is the recorded value of molar heat capacity at constant pressure equal to or greater than 400 J/K/mol for this compound? CCO
false (0)

The origin of these recorded values is the NIST ThermoML archive (doi:10.1016/j.fluid.2008.09.004).
